# Assay system: GLP-1 Receptor (Homo sapiens, UniProt P43220)
# Sequence (P43220 24-463): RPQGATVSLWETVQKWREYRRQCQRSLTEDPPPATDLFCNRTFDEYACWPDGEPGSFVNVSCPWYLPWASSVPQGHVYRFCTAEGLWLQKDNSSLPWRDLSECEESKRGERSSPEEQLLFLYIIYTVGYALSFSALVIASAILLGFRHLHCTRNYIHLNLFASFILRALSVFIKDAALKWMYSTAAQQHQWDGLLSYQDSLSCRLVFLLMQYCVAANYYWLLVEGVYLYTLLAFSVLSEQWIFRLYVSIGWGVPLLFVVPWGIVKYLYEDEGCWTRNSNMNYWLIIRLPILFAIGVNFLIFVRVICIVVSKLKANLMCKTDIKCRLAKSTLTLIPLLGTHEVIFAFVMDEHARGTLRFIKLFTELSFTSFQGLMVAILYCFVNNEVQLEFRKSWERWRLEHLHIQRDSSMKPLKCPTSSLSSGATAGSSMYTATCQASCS
# Procedure text: GLP-1R agonist cAMP stimulation assay (HEK293/GLP1R/CRE-LUC cells, HTRF cAMP dynamic 2 kit)
# Experimental context: HEK293/CRE-Luc cell line stably expressing the GLP-1 Receptor; 30 min incubation at 37° C.
pEC50: −log10 of the molar value.
Result type: pEC50

Solved entries (count: 2):
INSERT INTO results (molecule, experimental_value) VALUES
  ('O=C(NCC(F)(F)F)c1ccc2c(nc(CN3CCc4cc(C(F)(F)F)c(OCc5ccc(Cl)cc5F)nc4C3)n2C[C@@H]2CCO2)c1F [Compound 21]', '6.52 to 9.00'),
  ('N#Cc1nnc(-c2cc3nc(CN4CCc5cc(C(F)(F)F)c(NCc6ccc(Cl)cc6F)nc5C4)n(C[C@@H]4CCO4)c3cn2)[nH]1 [Compound 108]', '> 9.00');

Turning to the following molecule.
Q: Fill in the blank: the reported pEC50 of N#Cc1nnc(-c2cnc3c(c2)nc(CN2CCc4cc(C(F)(F)F)c(OCc5ccc(Cl)cc5F)nc4C2)n3C[C@@H]2CCO2)[nH]1 [Compound 17] is ____.
Ans: > 9.00

----------
# Assay system: GLP-1 Receptor (Homo sapiens)
# Procedure text: GLP-1R agonist cAMP stimulation assay (HEK293/GLP1R/CRE-LUC cells, HTRF cAMP dynamic 2 kit)
# Experimental context: HEK293/CRE-Luc cell line stably expressing the GLP-1 Receptor; 30 min incubation at 37° C.
pEC50: −log10 of the molar value.
Each record here notes measured pEC50.

INSERT INTO measurements (smiles_text, experimental_value) VALUES
  ('Cc1cc2c(nc1OCc1c(F)cc(Cl)cc1F)CN(Cc1nc3cc(-c4nnc(C(F)(F)F)[nH]4)cnc3n1C[C@@H]1CCO1)CC2', '> 9.00'),
  ('O=c1[nH]c(-c2ccc3c(c2)nc(CN2CCc4cc(C(F)(F)F)c(OCc5ccc(Cl)cc5F)nc4C2)n3C[C@@H]2CCO2)no1', '> 9.00'),
  ('Cc1cc(-c2nnc(C(F)(F)F)[nH]2)cnc1CN1CCc2cc(Cl)c(OCc3ccc(Cl)cc3F)nc2C1', '< 6.52'),
  ('N#Cc1ccc(COc2nc3c(cc2C(F)(F)F)CCN(Cc2nc4cc(-c5nnc(C(F)(F)F)[nH]5)ncc4n2C[C@@H]2CCO2)C3)c(F)c1', '> 9.00'),
  ('N#Cc1cc2c(nc1OCc1c(F)cc(Cl)cc1F)CN(Cc1nc3cc(-c4nnc(C(F)(F)F)[nH]4)ncc3n1C[C@@H]1CCO1)CC2', '> 9.00'),
  ('Fc1cc(Cl)ccc1COc1nc2c(cc1Cl)CCN(Cc1nc3cc(-c4nnc(C(F)(F)F)[nH]4)ncc3n1C[C@@H]1CCO1)C2', '> 9.00');

Would you kindly look at the next entry?
Q: GLP-1 Receptor (Homo sapiens) / pEC50 / N#Cc1nnc(-c2cc3nc(CN4CCc5cc(Cl)c(OCc6ccc(Cl)cc6F)nc5C4)n(C[C@@H]4CCO4)c3cn2)[nH]1 : value?
Ans: > 9.00

----------
# Assay system: GLP-1 Receptor (Homo sapiens, UniProt P43220)
# Procedure text: GLP-1R agonist cAMP stimulation assay (HEK293/GLP1R/CRE-LUC cells, HTRF cAMP dynamic 2 kit)
# Experimental context: HEK293/CRE-Luc cell line stably expressing the GLP-1 Receptor; 30 min incubation at 37° C.
pEC50: −log10 of the molar value.
Result type: pEC50

# count of solved cases: 2
INSERT INTO assay_data (smiles_text, experimental_value) VALUES
  ('Fc1cc(Cl)cc(F)c1COc1nc2c(cc1C(F)(F)F)CCN(Cc1nc3cc(-c4nnc(C(F)(F)F)[nH]4)nnc3n1C[C@@H]1CCO1)C2', '> 9.00'),
  ('CC(F)(F)c1nnc(-c2cc3nc(CN4CCc5cc(C(F)(F)F)c(OCc6ccc(Cl)cc6F)nc5C4)n(C[C@@H]4CCO4)c3cn2)[nH]1', '> 9.00');

Q: // lookup pEC50 | system=GLP-1 Receptor (Homo sapiens, UniProt P43220) | key= Fc1cc(Cl)ccc1COc1nc2c(cc1C(F)(F)F)CCN(Cc1nc3cc(-c4nnc(C(F)(F)F)[nH]4)nnc3n1C[C@@H]1CCO1)C2
Ans: > 9.00

Q: What do you get for Cc1cc2c(nc1OCc1c(F)cc(Cl)cc1F)CN(Cc1nc3cc(-c4noc(=O)[nH]4)ncc3n1C[C@@H]1CCO1)CC2 ?
Ans: > 9.00

Q: Query O=C(O)CCn1cc(-c2cnc3c(c2)nc(CN2CCc4cc(C(F)(F)F)c(OCc5ccc(Cl)cc5F)nc4C2)n3C[C@@H]2CCO2)nn1 next
Ans: 6.52 to 9.00

The measured values listed here are drawn from patent US20250206757A1.
